- Test system: Mythimna separata
- assay_info: Insecticidal activity against fourth-instar larvae of Mythimna separata (Oriental armyworm) reared on compound pre-treated corn leaves assessed as mortality at 50 ug/mL measured 72 hr post compound treatment by leaf-dipping assay
- Format: functional
measured_endpoint: mortality at 50 µg/mL (%)
Provide only the numeric value, understood in %.

O=C(Nc1ccc(F)cc1)c1cc(Br)nn1-c1ncccc1Cl; 100
Cc1cc(Br)cc(C)c1NC(=O)c1cc(Br)nn1-c1ncccc1Cl; 100
Cc1cc(Cl)cc(C)c1NC(=O)c1cc(Br)nn1-c1ncccc1Cl; 100
Cc1cc([N+](=O)[O-])cc(Cl)c1NC(=O)c1cc(Br)nn1-c1ncccc1Cl; 100

Requested read-out mortality at 50 µg/mL, target or system Mythimna separata, entry `O=C(Nc1ccc(I)cc1)c1cc(Br)nn1-c1ncccc1Cl`
50

Requested read-out mortality at 50 µg/mL, target or system Mythimna separata, entry `O=C(Nc1ccc([N+](=O)[O-])cc1Br)c1cc(Br)nn1-c1ncccc1Cl`
30

Requested read-out mortality at 50 µg/mL, target or system Mythimna separata, entry `O=C(Nc1ccc([N+](=O)[O-])cc1Cl)c1cc(Br)nn1-c1ncccc1Cl`
100

Requested read-out mortality at 50 µg/mL, target or system Mythimna separata, entry `Cc1cccc([N+](=O)[O-])c1NC(=O)c1cc(Br)nn1-c1ncccc1Cl`
20

Requested read-out mortality at 50 µg/mL, target or system Mythimna separata, entry `Cc1cc(Cl)cc([N+](=O)[O-])c1NC(=O)c1cc(Br)nn1-c1ncccc1Cl`
100

Requested read-out mortality at 50 µg/mL, target or system Mythimna separata, entry `Cc1cc([N+](=O)[O-])ccc1NC(=O)c1cc(Br)nn1-c1ncccc1Cl`
100

====

# mortality at 50 µg/mL listing for each entry below
- Test system: Mythimna separata
- assay_info: Insecticidal activity against fourth-instar larvae of Mythimna separata (Oriental armyworm) reared on compound pre-treated corn leaves assessed as mortality at 50 ug/mL measured 72 hr post compound treatment by leaf-dipping assay
- Format: functional
Provide only the numeric value, understood in %.

O=C(Nc1ccc(Cl)cc1)c1cc(Br)nn1-c1ncccc1Cl; 100
O=C(Nc1ccc([N+](=O)[O-])cc1)c1cc(Br)nn1-c1ncccc1Cl; 20
Cc1cccc(C)c1NC(=O)c1cc(Br)nn1-c1ncccc1Cl; 40

So what's the measured mortality at 50 µg/mL for this one? `Cc1ccc(NC(=O)c2cc(Br)nn2-c2ncccc2Cl)c(C)c1`
0

====

- Test system: Plutella xylostella
- assay_info: Insecticidal activity against Plutella xylostella (diamondback moth) second-instar larvae infested on compound pre-treated cabbage leaves assessed as mortality at 200 ug/mL measured 3 days post compound treatment by leaf-dipping assay
- Type: functional
measured_endpoint: mortality at 200 µg/mL (%)
Provide only the numeric value, understood in %.

So what's the measured mortality at 200 µg/mL for this one? `O=C(Nc1ccc([N+](=O)[O-])cc1Cl)c1cc(Br)nn1-c1ncccc1Cl`
78

So what's the measured mortality at 200 µg/mL for this one? `Cc1cc(Br)cc(C)c1NC(=O)c1cc(Br)nn1-c1ncccc1Cl`
89

So what's the measured mortality at 200 µg/mL for this one? `O=C(Nc1ccc(Cl)cc1)c1cc(Br)nn1-c1ncccc1Cl`
100

So what's the measured mortality at 200 µg/mL for this one? `O=C(Nc1ccc([N+](=O)[O-])cc1Br)c1cc(Br)nn1-c1ncccc1Cl`
100

So what's the measured mortality at 200 µg/mL for this one? `Cc1cc(Cl)cc(C)c1NC(=O)c1cc(Br)nn1-c1ncccc1Cl`
100

So what's the measured mortality at 200 µg/mL for this one? `Cc1cc(Cl)cc([N+](=O)[O-])c1NC(=O)c1cc(Br)nn1-c1ncccc1Cl`
95

So what's the measured mortality at 200 µg/mL for this one? `O=C(Nc1ccc(F)cc1)c1cc(Br)nn1-c1ncccc1Cl`
100
